assay-target: Trace amine-associated receptor 1 (Homo sapiens, UniProt Q96RJ0);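 note: inhibition of calcium response to PEA at EC80 in Galpha16 coupled cells measured by Fluo-8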
Sequence (Q96RJ0 whole entry): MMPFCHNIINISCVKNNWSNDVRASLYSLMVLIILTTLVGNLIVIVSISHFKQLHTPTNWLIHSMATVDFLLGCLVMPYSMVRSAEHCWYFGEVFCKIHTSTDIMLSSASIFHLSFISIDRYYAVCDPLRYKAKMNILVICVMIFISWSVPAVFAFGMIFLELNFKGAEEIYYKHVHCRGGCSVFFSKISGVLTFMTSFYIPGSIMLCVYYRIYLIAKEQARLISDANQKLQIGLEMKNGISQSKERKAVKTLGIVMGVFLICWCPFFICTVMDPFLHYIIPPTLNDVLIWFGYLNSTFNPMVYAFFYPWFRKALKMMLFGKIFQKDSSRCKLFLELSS
assay-protocol: Counterscreen for agonists of the human trace amine associated receptor 1 (hTAAR1): Fluorescence-based cell-based high throughput dose response assay to identify hTAAR1 agonist that also desensitize TAAR1 receptor response.
Format: functional
Calls of active or inactive are those of the source.
quantity-kind: IC50

1) Cc1cc(-c2csc(N)n2)c(C)n1CCc1ccccc1 ... 3.8 µM (active)
2) CC(C)[C@H](NC(=O)c1ccc(Cl)c(Cl)c1)C(=O)N1CCC[C@H]1C(=O)NCCc1ccccc1Cl ... 1.53 µM (active)
3) O=C(c1nc(C(F)(F)F)[nH]c1-c1ccccc1)N1CCc2ccccc2C1 ... 9.85 µM (active)
4) Cc1cc(C)c2cc(C#N)c(N3CCNCC3)nc2c1 ... 4.28 µM (active)
5) COc1ccc(NS(=O)(=O)c2ccc(NC(=S)NC(=O)C(C)C)cc2)cc1 ... 6.23 µM (active)

###

assay-protocol: fluconazole-exposed Candida albicans growth modulators – fluorescence, retest, confirmation (AID 2467)
Format: functional, cell-based
The source made the active and inactive calls.
quantity-kind: EC50

1) CC(c1ccc(Cl)cc1)n1c(S)nnc1-c1ccc2ccccc2n1 (centres undefined) ... 4.24 µM (active)
2) COc1ccccc1N1CCN(C(=O)c2cc3cc(Cl)ccc3[nH]2)CC1 ... > 38 µM (not active)
3) Clc1ccccc1-c1nc2ccccc2c2nc3ccccc3n12 ... 12.2 µM (active)
4) Cc1ccc(C)c(S(=O)(=O)Nc2ccccc2C(=O)Nc2cc(C)on2)c1 ... 1.28 µM (active)

###

assay-target: Heat shock factor protein 1 (Mus musculus, UniProt P38532)
Sequence (P38532 whole entry): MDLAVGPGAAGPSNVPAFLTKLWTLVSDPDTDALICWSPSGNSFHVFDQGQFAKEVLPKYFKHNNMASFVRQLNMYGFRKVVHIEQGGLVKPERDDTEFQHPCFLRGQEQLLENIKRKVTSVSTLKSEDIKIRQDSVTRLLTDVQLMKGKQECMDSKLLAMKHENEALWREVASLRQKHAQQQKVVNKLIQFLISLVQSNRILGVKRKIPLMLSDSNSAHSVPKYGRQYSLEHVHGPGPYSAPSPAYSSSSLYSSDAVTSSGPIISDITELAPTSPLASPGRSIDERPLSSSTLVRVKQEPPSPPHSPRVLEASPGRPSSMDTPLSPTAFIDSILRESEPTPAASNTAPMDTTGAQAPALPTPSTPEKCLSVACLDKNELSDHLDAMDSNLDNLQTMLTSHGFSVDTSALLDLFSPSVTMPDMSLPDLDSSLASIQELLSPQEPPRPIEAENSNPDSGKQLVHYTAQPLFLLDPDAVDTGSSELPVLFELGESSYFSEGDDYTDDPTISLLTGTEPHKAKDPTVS
assay-protocol: enhancement of HSF1-driven luciferase signal – cell-based, NIH3T3, luminescence, dose retest, confirmation (AID 435004);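 note: stress induced by proteasome inhibitor MG132 added 30 min after compound; luciferase reporter driven by HSF1 response element in NIH3T3 cells; actives raise luminescence as potentiators of the MG132 stress response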
Assay type: functional
Active and inactive are the calls of the source.
Possible outcomes: y for active, n for inactive

1. CCOC(=O)c1sc(C)c2c1NC(C)(c1cccc3ccccc13)NC2=O (stereo not given) ... n
2. O=C(Nc1ccc(OCC(F)(F)C(F)F)c(C(F)(F)F)c1)c1ccccc1O ... y
3. O=C(CCCSc1nc2ccccc2[nH]1)N1CCN(c2ccc([N+](=O)[O-])cc2)CC1 ... n
4. Cc1cc(SCC(=O)N/N=C/c2ccc(O)c(O)c2)c(C)cc1Br ... n
5. Brc1ccc(CSc2nnc(-c3ccccn3)n2Cc2ccco2)cc1 ... y

###

Parameter 'readout' = AC50; parameter 'system' = UniProt P05177.
Sequence (P05177 whole entry): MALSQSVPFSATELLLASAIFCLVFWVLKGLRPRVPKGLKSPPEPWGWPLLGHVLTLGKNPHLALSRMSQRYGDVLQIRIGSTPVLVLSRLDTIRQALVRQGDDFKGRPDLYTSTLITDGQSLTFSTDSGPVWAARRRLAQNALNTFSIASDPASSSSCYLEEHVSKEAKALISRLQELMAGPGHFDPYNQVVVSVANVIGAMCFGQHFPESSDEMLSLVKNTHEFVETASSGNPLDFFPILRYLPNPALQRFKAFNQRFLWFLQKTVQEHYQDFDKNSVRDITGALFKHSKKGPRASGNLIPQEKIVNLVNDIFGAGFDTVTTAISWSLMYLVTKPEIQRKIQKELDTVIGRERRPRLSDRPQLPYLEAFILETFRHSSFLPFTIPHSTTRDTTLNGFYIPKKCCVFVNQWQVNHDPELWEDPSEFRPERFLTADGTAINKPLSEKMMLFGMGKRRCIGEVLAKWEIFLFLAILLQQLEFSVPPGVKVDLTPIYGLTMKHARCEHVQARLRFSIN
quantity-kind: AC50

1) CCCC[C@@H]1C[C@H]1C(NC(=O)c1ccccc1)c1ccccc1C(F)(F)F (stereo partly specified) ... 10 µM (inconclusive)
2) NC(=O)c1cccc(N)c1 [3-AMINOBENZAMIDE] ... 39.8 µM (inconclusive)
3) Cc1nc(SCC(=O)NCCc2ccccc2)c2oc3ccccc3c2n1 ... 0.562 µM (inconclusive)
4) COC(=O)c1sc2ccccc2c1-n1cccc1C(=O)C(=O)Nc1ccc(Cl)cc1 ... 2.82 µM (inconclusive)
5) CCN=C=NCCCN(C)C ... 5.01 µM (inconclusive)
6) Cc1cc(C)c[n+](CC(=O)c2cc3ccccc3oc2=O)c1 ... 22.4 µM (inconclusive)

###

assay-protocol: NIH3T3 cell viability loss – ATP luminescence, mouse fibroblasts, counter-screen, dose response (AID 2010);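 note: cells exposed to compound for about 90 hours before reading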
Type: functional, cell-based
Activity calls are given as the source filed them.
quantity-kind: EC50

1) COc1ccccc1CN1CC(C(=O)NCCN(C)CCc2ccccc2)CCC1=O (stereo not given) ... > 60 µM (not active)
2) CN1/C(=C\C(=O)C[n+]2ccc3ccccc3c2)C(C)(C)c2ccccc21 ... > 60 µM (not active)
3) O=C(NCc1cn(-c2ccccc2)nc1-c1ccccc1)c1cc([N+](=O)[O-])cc([N+](=O)[O-])c1 ... > 60 µM (not active)
4) O=C(N/N=C/c1cc2c(cc1Br)OCO2)c1c[nH]c2ccccc12 ... > 60 µM (inconclusive)
5) O=C(c1c[nH]c(C(=O)N2CCN(c3ccccc3F)CC2)c1)c1cccc(Cl)c1Cl ... 2.1 µM (active)

###

assay-target: Corticotropin-releasing factor receptor 2/Corticotropin-releasing factor-binding protein (Homo sapiens, UniProt P24387+Q13324)
Sequence (Q13324 whole entry): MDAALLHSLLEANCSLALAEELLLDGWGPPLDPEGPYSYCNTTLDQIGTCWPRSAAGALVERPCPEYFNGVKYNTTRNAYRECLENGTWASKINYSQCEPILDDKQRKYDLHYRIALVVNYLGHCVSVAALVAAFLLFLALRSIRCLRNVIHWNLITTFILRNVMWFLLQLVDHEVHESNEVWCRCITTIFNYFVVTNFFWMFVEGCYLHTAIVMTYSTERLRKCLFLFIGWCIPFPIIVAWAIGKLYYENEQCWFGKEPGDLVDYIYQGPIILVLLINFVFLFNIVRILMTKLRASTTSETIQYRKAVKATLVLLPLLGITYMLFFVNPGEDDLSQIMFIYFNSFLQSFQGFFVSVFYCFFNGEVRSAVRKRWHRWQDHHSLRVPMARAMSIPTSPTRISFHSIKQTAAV
Sequence (P24387 whole entry): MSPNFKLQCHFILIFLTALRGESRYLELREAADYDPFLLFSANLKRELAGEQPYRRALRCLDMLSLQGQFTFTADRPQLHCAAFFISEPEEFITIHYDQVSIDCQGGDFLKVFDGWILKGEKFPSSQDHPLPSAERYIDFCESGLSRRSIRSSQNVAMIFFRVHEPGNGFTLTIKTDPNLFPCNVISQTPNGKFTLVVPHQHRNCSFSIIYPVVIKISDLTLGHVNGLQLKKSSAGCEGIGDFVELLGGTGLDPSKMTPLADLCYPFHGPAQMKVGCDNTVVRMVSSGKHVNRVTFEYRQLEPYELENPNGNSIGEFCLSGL
assay-protocol: Dose Response confirmation of uHTS hits for small molecule antagonists of the CRF-binding protein and CRF-R2 receptor complex.
Assay type: functional
condition-details: read-out: IC50_Mean
Active and inactive are the calls of the source.
Possible outcomes: t (active), f (inactive)

1) CC(=O)Nc1ccc(OCC[n+]2cccc(C(N)=O)c2)cc1 ... f
2) COC(C(=O)Nc1ccc(F)cc1)c1ccccc1 (stereo not given) ... f
3) N#C/C(=C(/O)COC(=O)COc1cccc(Br)c1)c1nc2ccccc2[nH]1 ... f
4) CCC(C)C1N=C(c2ccccc2)c2cc(Cl)ccc2N(CC(=O)NCc2ccco2)C1=O (stereo not given) ... f
5) CCOC(=O)c1c(-c2ccccc2)oc2ccc(OC(C)C(=O)O)cc12 (stereo not given) ... t
6) O=C(C(c1ccccc1)c1ccccc1)N1CCN(CCN2C(=O)c3cccc4cccc(c34)C2=O)CC1 ... f
7) Cc1cc(C)c(S(=O)(=O)n2ccc3ccccc32)c(C)c1 ... f
8) Cc1nn2c(N)c(-c3ccccc3)cnc2c1-c1ccc(Cl)cc1 ... f
9) COc1cccc(CSc2nnc(C(F)(F)F)n2Cc2ccc(F)cc2)c1 ... t
10) C=CCOc1nc2c(c(=O)n(Cc3ccc(Cl)c(Cl)c3)c(=O)n2C)n1C ... f

###

assay-protocol: Luminescence Cell-Based Dose Confirmation HTS to Identify Inhibitors of Platelet Dense Granule Release. [Related pubchem assays: 1663 (Primary HTS), 1678 (Summary of Project)]
Assay type: functional
The source made the active and inactive calls.
Readings of EC50 for the listed compounds
quantity-kind: EC50

1. COc1ccc(-c2nc(-c3ccc(Br)cc3)no2)c(OC)c1 ... > 112 µM (not active)
2. N=C(NOC(=O)c1ccccc1Cl)c1ccccn1 ... 8.3 µM (active)
3. O=C(Cc1c[nH]c2ccccc12)N/N=C/c1ccccc1O ... > 112 µM (not active)
4. Cc1ccc(N(C)/N=C/c2ccc(Cl)cc2Cl)nn1 ... > 112 µM (not active)
5. Cc1ccc(C(=O)N/C(=C\c2cccc([N+](=O)[O-])c2)C(=O)NCc2ccncc2)cc1 ... 38.4 µM (active)
6. CCOc1cc(/C=N/NC(N)=O)cc(Br)c1OCC(=O)Nc1ccccc1C ... 1.55 µM (active)

###

assay-target: Cytochrome P450 3A4 (Homo sapiens, UniProt P08684);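 note: CYP3A4 tested as one member of a cytochrome P450 panel screen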
Sequence (P08684 whole entry): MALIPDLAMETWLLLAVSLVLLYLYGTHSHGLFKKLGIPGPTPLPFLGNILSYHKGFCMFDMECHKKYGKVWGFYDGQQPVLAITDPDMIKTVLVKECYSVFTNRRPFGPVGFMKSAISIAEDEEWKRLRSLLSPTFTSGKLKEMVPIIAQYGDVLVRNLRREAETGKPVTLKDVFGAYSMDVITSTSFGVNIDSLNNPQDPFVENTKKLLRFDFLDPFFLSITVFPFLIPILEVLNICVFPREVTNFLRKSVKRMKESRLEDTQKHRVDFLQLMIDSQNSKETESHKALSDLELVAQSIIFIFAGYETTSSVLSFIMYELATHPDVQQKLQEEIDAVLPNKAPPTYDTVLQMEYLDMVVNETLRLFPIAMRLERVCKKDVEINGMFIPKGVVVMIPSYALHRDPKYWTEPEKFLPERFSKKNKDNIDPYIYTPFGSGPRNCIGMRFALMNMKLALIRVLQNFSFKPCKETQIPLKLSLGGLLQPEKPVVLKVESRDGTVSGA
quantity-kind: AC50

1) Fc1ccc(NCc2ccccc2F)cc1Cl ... 20 µM (inconclusive)
2) O=C(N/N=C/c1c[nH]c2ccccc12)c1ccn(Cc2ccc(Cl)cc2Cl)n1 ... 3.55 µM (inconclusive)
3) CN1CCN(c2ncc3ncc(=O)n(Cc4cccs4)c3n2)CC1 ... 25.1 µM (inconclusive)
4) O=C(Nc1c(C(=O)N2CCCCC2)cnn1-c1ccccc1)c1ccco1 ... 17.8 µM (inconclusive)
5) CCCC[C@@H]1C[C@H]1C(NC(=O)c1ccccc1)c1ccccc1C(F)(F)F (stereo partly specified) ... 3.16 µM (inconclusive)
6) Cc1nc2cnc(N(C)C)nc2n(Cc2cccs2)c1=O ... 3.16 µM (inconclusive)

###

assay-target: Nucleotide-binding oligomerization domain-containing protein 2 (Homo sapiens, UniProt Q9HC29)
Sequence (Q9HC29 whole entry, the tested form may be a part): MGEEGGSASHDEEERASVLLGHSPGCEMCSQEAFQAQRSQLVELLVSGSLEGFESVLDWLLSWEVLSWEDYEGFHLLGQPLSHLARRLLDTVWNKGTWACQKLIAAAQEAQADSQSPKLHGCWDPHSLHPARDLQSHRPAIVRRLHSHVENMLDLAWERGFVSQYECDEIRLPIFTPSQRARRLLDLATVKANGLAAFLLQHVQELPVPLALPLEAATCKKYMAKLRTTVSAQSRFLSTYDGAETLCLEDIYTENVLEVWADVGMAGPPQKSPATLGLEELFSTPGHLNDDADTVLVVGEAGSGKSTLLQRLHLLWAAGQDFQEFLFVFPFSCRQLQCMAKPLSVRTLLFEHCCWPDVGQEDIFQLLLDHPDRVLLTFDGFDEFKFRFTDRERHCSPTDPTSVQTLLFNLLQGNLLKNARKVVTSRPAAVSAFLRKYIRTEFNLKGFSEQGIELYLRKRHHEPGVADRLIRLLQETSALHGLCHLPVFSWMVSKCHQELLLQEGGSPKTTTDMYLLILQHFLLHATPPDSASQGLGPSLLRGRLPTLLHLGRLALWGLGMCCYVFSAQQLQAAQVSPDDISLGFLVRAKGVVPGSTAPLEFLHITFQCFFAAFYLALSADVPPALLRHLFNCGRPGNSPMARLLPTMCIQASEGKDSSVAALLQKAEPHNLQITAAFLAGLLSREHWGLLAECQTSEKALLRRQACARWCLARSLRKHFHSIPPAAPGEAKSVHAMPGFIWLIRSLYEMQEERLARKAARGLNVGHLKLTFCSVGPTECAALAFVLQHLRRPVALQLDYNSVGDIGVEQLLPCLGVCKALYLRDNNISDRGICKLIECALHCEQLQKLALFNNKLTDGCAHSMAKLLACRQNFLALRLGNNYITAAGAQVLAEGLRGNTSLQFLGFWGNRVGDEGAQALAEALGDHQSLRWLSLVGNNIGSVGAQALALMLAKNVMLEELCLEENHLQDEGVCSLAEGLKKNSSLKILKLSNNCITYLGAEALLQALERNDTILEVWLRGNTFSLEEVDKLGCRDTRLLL
assay-protocol: inhibition of NOD2-driven NF-kB reporter – cell-based, luminescence, uHTS, HEK293 (AID 1566)
Assay type: functional
Calls of active or inactive are those of the source.
quantity-kind: EC50

1. Fc1ccc(F)c(CNc2ncnc3cc(Cl)ccc23)c1 ... > 20 µM (inactive)
2. O=S(=O)(Nc1nc2ccccc2nc1Nc1ccc2c(c1)OCO2)c1ccc(F)cc1 ... 11.6 µM (active)
3. COc1ccccc1NC(=O)CSc1nc2sc(C)c(C)c2c(=O)n1C ... > 20 µM (inactive)
4. Cc1cc(OCC(=O)Nc2ccncc2)cc(C)c1Br ... 8.76 µM (active)
